- Tested on: CCRIS mutagenicity, Ames/micronucleus/aberration tests
- testDescription: CCRIS mutagenicity studies
- conditionsUsed: Test System: AMES SALMONELLA TYPHIMURIUM; Strain/Indicator: TA100; Metabolic Activation: NONE; Method: PREINCUBATION
The source made the active and inactive calls. No rule for the calls is given here.
Form entry, call: pick from 1 (yes) for active, 0 (no) for inactive

Worked cases, answers included:
{"columns": ["smilesRepresentation", "className"],
 "data": [
  ["OCCBr", "1 (yes)"],
  ["O=c1[nH][nH]c(=O)c2cc([N+](=O)[O-])ccc12", "1 (yes)"],
  ["O=C(O)CNCP(=O)(O)O", "0 (no)"],
  ["COc1nncc2cccnc12", "0 (no)"],
  ["NNc1ccccc1[N+](=O)[O-]", "1 (yes)"],
  ["Nc1ccccc1-c1ccccc1", "0 (no)"]
]}

## Task Hello, I am checking results. What call was entered for COc1ccc(N)cc1N ?
## Result 0 (no)

## Task Hello, I am checking results. What call was entered for C=C(Cl)C#N ?
## Result 0 (no)

## Task Hello, I am checking results. What call was entered for [O-][Br+2]([O-])O ?
## Result 0 (no)
